procedure.summary: Effect of stereoisomers of chlorocitric acid on food consumption in meal-fed rats (Example 14)
Format: in vivo, Charles River female rats
test.settings: 0.66 mmoles/kg oral, mean ± S.E.; control 8.2 ± 1.2
Task for the reader: assign each of the following compounds its reported Food consumption.
Please respond with the number in g and leave the unit unwritten.

Lab note: measured Food consumption of O=C(O)C[C@@](O)(C(=O)O)[C@H](Cl)C(=O)O [(+)-erythro-Chlorocitric acid, (+)-erythro-chlorocitric acid] was 8.1

Lab note: measured Food consumption of O=C(O)C[C@](O)(C(=O)O)[C@@H](Cl)C(=O)O [(-)-erythro-Chlorocitric acid, (-)-erythro-chlorocitric acid] was 7.0

Lab note: measured Food consumption of O=C(O)C[C@](O)(C(=O)O)[C@H](Cl)C(=O)O [(+)-threo-Chlorocitric acid, (+)-threo-chlorocitric acid] was 6.8

Lab note: measured Food consumption of O=C(O)C[C@@](O)(C(=O)O)[C@@H](Cl)C(=O)O [(-)-threo-Chlorocitric acid, (-)-threo-chlorocitric acid] was 4.8
